- system: T1, GST-human NOGO-A56 (human)
- T1 construct: Expressed in E. coli BL21 from pGEX-6P1 and purified on glutathione-sepharose; the GST tag is part of the protein in the assays; also called GST-Nogo-A 5+6; GST Nogo-A 5 + 6
- T1 sequence (chain, as listed by the source limits assumed): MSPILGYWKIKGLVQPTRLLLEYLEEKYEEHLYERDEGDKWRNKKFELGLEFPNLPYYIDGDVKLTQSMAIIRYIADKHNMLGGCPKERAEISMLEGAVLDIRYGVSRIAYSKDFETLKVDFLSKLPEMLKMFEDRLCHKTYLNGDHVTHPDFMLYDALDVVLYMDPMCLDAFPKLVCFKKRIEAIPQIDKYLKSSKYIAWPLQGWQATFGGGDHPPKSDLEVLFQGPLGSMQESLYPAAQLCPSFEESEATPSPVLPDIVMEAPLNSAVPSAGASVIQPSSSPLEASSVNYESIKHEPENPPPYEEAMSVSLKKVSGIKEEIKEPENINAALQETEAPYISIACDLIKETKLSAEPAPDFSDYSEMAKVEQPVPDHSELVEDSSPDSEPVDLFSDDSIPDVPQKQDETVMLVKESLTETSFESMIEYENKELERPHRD
- protocol description: direct ELISA, GST-human NOGO-A56 coated at 1.0 mcg/ml, purified antibody, OD490
measured endpoint: EC50 (read off the curve)

// below: answered binders
H28L13 (antibody, human IgG1, kappa, V domains shown, IgG1 (L235A, G237A) / kappa; CAMPATH-1H signal (1-19) left out; also called H28FL L13FL) VH: QVQLVQSGAEVKKPGASVKVSCKASGYTFTSYWMHWVRQAPGQGLEWIGNINPSNGGTNYNEKFKSKATMTRDTSTSTAYMELSSLRSEDTAVYYCELMQGYWGQGTLVTVSS VL: DIVMTQSPLSLPVTLGQPASISCRSSKSLLYKDGKTYLNWFQQRPGQSPQLLIYLMSTRASGVPDRFSGGGSGTDFTLKISRVEAEDVGVYYCQQLVEYPLTFGQGTKLEIKR : ~0.08 µg/mL
H27L16 (antibody, human IgG1, kappa, V domains shown, IgG1 (L235A, G237A) / kappa; CAMPATH-1H signal (1-19) left out; also called H27FL L16FL) VH: QVQLVQSGAEVKKPGASVKVSCKASGYTFTSYWMHWVKQRPGQGLEWIGNINPSNGGTNYNEKFKSKATLTVDKSTSTAYMELSSLRSEDTAVYYCELMQGYWGQGTLVTVSS VL: DIVMTQSPLSNPVTLGQPVSISCRSSKSLLYKDGKTYLNWFLQRPGQSPQLLIYLMSTRASGVPDRFSGGGSGTDFTLKISRVEAEDVGVYYCQQLVEYPLTFGQGTKLEIKR : ~0.06 µg/mL
HcLc (chimera of 2A10: murine 2A10 VH and VL with human IgG constant regions) (antibody, V domains shown, also called chimeric antibody; chimeric form of the parental antibody) VH: QVQLQQPGTELVKPGASVKLSCKASGYTFTSYWMHWVKQRPGQGLEWIGNINPSNGGTNYNEKFKSKATLTVDKSSSTAYMQLSSLTSEDSAVYYCELGQGYWGQGTLVTVSS VL: DIVITQDELSNPVTSGESVSISCRSSKSLLYKDGKTYLNWFLQRPGQSPQLLIYLMSTRASGVSDRFSGSGSGTDFTLEISRVKAEDVGVYYCQQLVEYPLTFGAGTKLELKR : ~0.06 µg/mL
H6L13 (H6FL L13FL) (antibody, human IgG1, kappa, V domains shown, Human IgG1 (L235A, G237A, EU Index) / kappa; also called H6L13 with VH CDR3 GQGY) VH: QVQLVQSGAEVKKPGASVKVSCKASGYTFTSYWMHWVRQAPGQGLEWIGNINPSNGGTNYNEKFKSRATMTRDTSTSTAYMELSSLRSEDTAVYYCELGQGYWGQGTLVTVSS VL: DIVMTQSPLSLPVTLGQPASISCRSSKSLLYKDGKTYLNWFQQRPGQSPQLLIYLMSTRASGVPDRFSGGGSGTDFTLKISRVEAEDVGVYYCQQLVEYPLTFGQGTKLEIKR : ~0.1 µg/mL

// EC50 (read off the curve) lookup, key: H20L16 (antibody, human IgG1, kappa, V domains shown, IgG1 (L235A, G237A) / kappa; CAMPATH-1H signal (1-19) left out) VH: QVQLVQSGAEVKKPGASVKVSCKASGYTFTSYWMHWVRQAPGQGLEWIGNINPSNGGTNYNEKFKSKATMTRDTSTSTAYMELSSLRSEDTAVYYCELGQGYWGQGTLVTVSS VL: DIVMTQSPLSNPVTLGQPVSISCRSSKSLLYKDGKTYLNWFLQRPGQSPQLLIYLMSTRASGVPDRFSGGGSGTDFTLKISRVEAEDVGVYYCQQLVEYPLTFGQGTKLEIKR
~0.09 µg/mL
